System: CD19+ B cells
Experiment: Human B cell proliferation assay (3H-thymidine incorporation)
Conditions Used: B cells; donor 121; 2 μg/ml; Experiment B
Strand notation (5' to 3'): a small letter for the sugar, then the base; units joined by * are phosphorothioate-linked, units joined directly phosphodiester-linked; [ ] holds rarer units or linkages, { } end groups; capitals alone tell only the bases. d = 2'-deoxy (DNA)
Property Measured: cpm2 (cpm)

1) 5′-TCGTCG-3′-abasic-5′-ACGTTCG-3′-abasic-5′-AGATGAT-3′ [Compound C-20] ... 30851
2) (5′-TCGTCGA-3′-HEG)2-glycerol-HEG-5′-TCGTCGA-3′ [Compound C-94] ... 14406
3) 5′-TCGTCG-3′- C3-5′-ACGTTCG-3′-C3-5′-AGATGAT-3′ [Compound C-11] ... 30412
4) 5′-TCGTCGA-3′- C3-5′-ACGTTCG-3′-C3-5′-AGATGAT-3′ [Compound C-9] ... 35400
5) 5′-TCGTCGA-3′-HEG-5′-ACGTTCG-3′-HEG-5′-AGATGAT-3′ [Compound C-8] ... 12078
6) (5′-TCGTCGA-3′)2-glycerol-5′-TCGTCGA-3′ [Compound C-28] ... 26954
7) 5′-TCGTCG-3′-TEG-5′-ACGTTCG-3′-TEG-5′-AGATGAT-3′ [Compound C-18] ... 17085
8) 5′-TCGTCG-3′-C4-5′-ACGTTCG-3′-C4-5′-AGATGAT-3′ [Compound C-17] ... 30426
9) 5′-ACGTTCG-3′-HEG-5′-ACGTTCG-3′-HEG-5′-AGATGAT-3′ [Compound C-24] ... 6789
10) 5′-TCGTCG-3′-HEG-5′-TCGTCG-3′-HEG-5′-TCGTCG-3′ [Compound C-22] ... 14014
11) 5′-TCGTCG-3′-HEG-5′-AACGTT-3′-HEG-5′-AGATGAT-3′ [Compound C-23] ... 16221
12) 5′-TCGTCG-3′-HEG-5′-ACGTTCG-3′-HEG-5′-AGATGAT-3′ [Compound C-10] ... 14136
13) 5′-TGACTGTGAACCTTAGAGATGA-3′ (SEQ ID NO: 3) (dT*dG*dA*dC*dT*dG*dT*dG*dA*dA*dC*dC*dT*dT*dA*dG*dA*dG*dA*dT*dG*dA) [Compound P-7, reference compound] ... 1821
14) 5′-TCGTCG-3′-C12-5′-ACGTTCG-3′-C12-5′-AGATGAT-3′ [Compound C-19] ... 1099
15) 5′-TCGTCG-3′-HME-5′-ACGTTCG-3′-HME-5′-AGATGAT-3′ [Compound C-25] ... 35016

====

Tested on: human PBMCs
Experiment: Human PBMC cytokine response assay (IFN-γ and IFN-α in cell-free medium by ELISA), with or without cPLGA
Type: cell-based
Conditions Used: Donor 9; 20 μg/ml, 24 h
Strand notation (5' to 3'): a small letter for the sugar, then the base; units joined by * are phosphorothioate-linked, units joined directly phosphodiester-linked; [ ] holds rarer units or linkages, { } end groups; capitals alone tell only the bases. d = 2'-deoxy (DNA)
Property Measured: IFN-α Donor 9

1. 5′-TCGTCGA-3′- C3-5′-ACGTTCG-3′-C3-5′-AGATGAT-3′ [Compound C-9] ... 8
2. 5′-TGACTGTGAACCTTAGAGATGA-3′ (SEQ ID NO: 3) (dT*dG*dA*dC*dT*dG*dT*dG*dA*dA*dC*dC*dT*dT*dA*dG*dA*dG*dA*dT*dG*dA) [Compound P-7, negative control, reference compound] ... 0
3. 5′-TCGTCG-3′ [Compound P-2, reference compound] ... 0
4. 5′-TCGTCGA-3′-HEG-5′-ACGTTCG-3′-HEG-5′-AGATGAT-3′ [Compound C-8] ... 58
